assay: drug combination growth inhibition, ovarian cancer – cell-based, oncology-focused library, rucaparib conditional, profiling panel (AID 1508598); conditions: patient-derived ovarian cancer cells, CellTiter-Glo viability, 144 h; at 0.00122 µM; OCI-C5x cells; with rucaparib 10 µM; stronger effect = lower value; 100% = cells with rucaparib alone
Each entry below carries its reported viability.
API: value field is a number in %; no unit string.

// known answers, use as guide
CCOC(=O)c1cnc2ccc(-c3cncc(NS(=O)(=O)c4ccccc4)c3)cn12 : 121
COc1ccc(C2=N[C@@H](c3ccc(Cl)cc3)[C@H](c3ccc(Cl)cc3)N2C(=O)N2CCNC(=O)C2)c(OC(C)C)c1 : 117
C[C@H]1C[C@H]2[C@@H]3CCC4=CC(=O)C=C[C@]4(C)[C@@H]3C(=O)C[C@]2(C)[C@]1(O)C(=O)CO : 118
CC(=O)[C@]1(O)Cc2c(O)c3c(c(O)c2[C@H](O[C@H]2C[C@H](N)[C@H](O)[C@H](C)O2)C1)C(=O)c1ccccc1C3=O : 105
C[C@]12C=CC(=O)C=C1CC[C@@H]1[C@H]2C(=O)C[C@@]2(C)[C@H]1CC[C@@]2(O)C(=O)CO : 111
COc1cc(C(=O)NC2CCN(C)CC2)ccc1Nc1ncc2c(n1)N(C1CCCC1)CC(F)(F)C(=O)N2C : 97.8
COc1cc(=C2C=c3ccccc3=N2)[nH]/c1=C\c1[nH]c(C)cc1C : 127
CCc1c2c(nc3ccc(OC(=O)N4CCC(N5CCCCC5)CC4)cc13)-c1cc3c(c(=O)n1C2)COC(=O)[C@@]3(O)CC : 114
CCOc1ccc(Cc2cc([C@@H]3O[C@H](CO)[C@@H](O)[C@H](O)[C@@H]3O)ccc2Cl)cc1 : 126
CC(=O)O[C@@]1(C(C)=O)CC[C@H]2[C@@H]3C=C(C)C4=CC(=O)CC[C@]4(C)[C@@H]3CC[C@@]21C : 107

Exercise: Report viability, nothing else, for this compound: C[C@]12CCC(=O)C=C1CC[C@@H]1[C@H]2[C@H](O)C[C@@]2(C)[C@H]1CC[C@@]2(O)C(=O)CO
Key: 109

Exercise: Return reported viability. Input compound: COc1ccccc1-c1cc(Nc2cccc(CS(N)(=O)=O)c2)ncn1
Key: 122

Exercise: Consider the compound C[C@H](O[C@H]1OCCN(Cc2n[nH]c(=O)[nH]2)[C@H]1c1ccc(F)cc1)c1cc(C(F)(F)F)cc(C(F)(F)F)c1 and give its recorded viability.
Key: 111

Exercise: Supply recorded viability for COC1=C2C[C@H](C)C[C@@H](OC)[C@H](O)[C@H](C)/C=C(\C)[C@H](OC(N)=O)[C@@H](OC)/C=C/C=C(\C)C(=O)NC(=CC1=O)C2=O here.
Key: 107

Exercise: Find the measured viability of Cc1ccc(NC(=O)c2ccc(CN3CCN(C)CC3)cc2)cc1Nc1nc(-c2cccnc2)cs1 and report it.
Key: 105

Exercise: Look up and report measured viability for this entry: O=C(O)c1cc(I)ccc1NC(=O)[C@H](Cc1ccccc1)NCc1ccccc1
Key: 129

###

Measured z-score accompanies every entry in the list below.
experiment: MELAS cybrid and Rieske KO viability enhancers – cell-based, MELAS cybrids, Rieske KO mouse fibroblasts, CellTiter-Glo, primary screen (AID 1508586); conditions: MELAS cybrid survival, low glucose, CellTiter-Glo 48 h; stronger effect = higher value;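 also: z relative to plate mean and SD of compound and empty wells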
Just the number, please, no unit after it.

Below: 4 compounds and their reported z-score.
CCN1C(=O)N(CCc2ccccc2)C2(CCN(Cc3cnn(-c4ccccc4OC)c3)CC2)C1=O : 0.108
Cc1nn(C)c(C)c1-c1ccnc(NCCOCCO)n1 : 0.0151
CC(C)Cn1nc(C(=O)N2CCCC2)c2c1CCC(NCCc1cccs1)C2 (centres undefined) : -0.0921
CS(=O)(=O)c1ccc(C(O)C(CO)NC(=O)C(Cl)Cl)cc1 (centres undefined) : -0.348

Exercise: Give recorded z-score. CC(C)Cn1nc(C(=O)NCc2cccnc2)c2c1CCN(C(=O)c1scc3c1OCCO3)C2
Key: -0.675

Exercise: Return reported z-score. Input compound: CCCN(CCc1cccs1)C1CCc2c(O)cccc2C1 (centres undefined)
Key: -0.281

Exercise: Identify measured z-score corresponding to O=C(C1COc2ccccc2C1)N1CC(=O)N(C2CCCCC2)CC(OCc2ccccn2)C1 (centres undefined)
Key: 0.04

Exercise: Using the record for CCC(C)[C@H]1O[C@]2(CCC1C)CC1C[C@@H](CC=C(C)C(O[C@H]3CC(OC)C(O[C@H]4CC(OC)C(O)C(C)O4)C(C)O3)C(C)C=CC=C3CO[C@@H]4C(O)C(C)=C[C@H](C(=O)O1)[C@]34O)O2 (some centres undefined) , state its measured z-score.
Key: -0.0305

Exercise: Let me know recorded z-score for COc1ccc(CN2C[C@@H](CN3CCOCC3)C[C@@H](C(=O)NCC3CCCO3)C2)cc1OC (some centres undefined) , thanks.
Key: 0.0226
